target.desc: T1, human CD38 Fc-fusion aa 45-300 (human, UniProt P28907 45-300)
T1 construct: Expressed in HEK293 behind a human Vkappa leader, which is left out here; also called CD38-Fc fusion protein; CD38 Fc-Fusion protein
test.details: SPR (Biacore), Fab format
Each entry below carries its reported Kd.

binder: MOR06214 Fab (Fab, V domains shown, Fab format) VH: QVQLVESGGGLVQPGGSLRLSCAASGFTFSSYAMNWVRQAPGKGLEWVSNIQRVGSTYYADSVKGRFTISRDNSKNTLYLQMNSLRAEDTAVYYCAREDGSYMTDYFAYWGQGTLVTVSS VL: DIELTQPPSVSVAPGQTARISCSGDNIGHYYVSWYQQKPGQAPVLVIYSDSNRPSGIPERFSGSNSGNTATLTISGTQAEDEADYYCQSYNGTYVFGGGTKLTVL
Kd (nM): 5.26
//
binder: MOR06190 Fab (Fab, V domains shown, Fab format) VH: QVQLVESGGGLVQPGGSLRLSCAASGFTFSSYYMNWVRQAPGKGLEWVSYINPNGMMTNYADSVKGRFTISRDNSKNTLYLQMNSLRAEDTAVYYCARDLPLVYTGFAYWGQGTLVTVSS VL: DIELTQPPSVSVAPGQTARISCSGDNLRHYYVYWYQQKPGQAPVLVIYGDSKRPSGIPERFSGSNSGNTATLTISGTQAEDEADYYCQTYTGGASLVFGGGTKLTVL
Kd (nM): 15.7
//
binder: MOR03088 Fab (Fab, V domains shown, Fab format) VH: QVQLVESGGGLVQPGGSLRLSCAASGFTFSSYAMNWVRQAPGKGLEWVSGISSWGSSTYYADSVKGRFTISRDNSKNTLYLQMNSLRAEDTAVYYCAREDGSYMTDYFAYWGQGTLVTVSS VL: DIELTQPPSVSVAPGQTARISCSGDNIGHYYVSWYQQKPGQAPVLVIYSDSNRPSGIPERFSGSNSGNTATLTISGTQAEDEADYYCQSYNGTYVFGGGTKLTVLG
Kd (nM): 41.4
